Data origin, for the record: patent US8871753B2

Kindly supply the reported log10 of IC50 values for the records listed here.
system-tested: human JAK3 (a.a. 781-1124) (Homo sapiens, UniProt P52333)
Construct: JAK3 (a.a. 781-1124); His tag (N); made in house; host or cells: insect cells (baculovirus)
Sequence (P52333 781-1124): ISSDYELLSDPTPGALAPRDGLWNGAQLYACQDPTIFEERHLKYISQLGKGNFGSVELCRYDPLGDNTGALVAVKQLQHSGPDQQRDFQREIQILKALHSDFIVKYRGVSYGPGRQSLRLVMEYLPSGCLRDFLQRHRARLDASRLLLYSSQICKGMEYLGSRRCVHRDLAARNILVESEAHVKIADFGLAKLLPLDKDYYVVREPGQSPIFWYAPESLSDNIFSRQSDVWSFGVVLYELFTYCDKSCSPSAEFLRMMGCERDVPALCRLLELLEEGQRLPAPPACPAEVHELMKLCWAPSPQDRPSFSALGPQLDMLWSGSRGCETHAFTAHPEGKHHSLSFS
test-name: In vitro JAK kinase assay (HTRF, phosphorylation of a biotinylated peptide), JAK3
Assay type: biochemical
cond: method AA1 (3 μM ATP) or AA2 (1000 μM ATP), not stated per value
Structures can show the parent of a compound that is named as a salt.
Hey, these are logged values: log10 of IC50, nM being the unit before logging.

Entry O=C(Nc1ccc2cc1CCc1cccc(c1)Nc1ncc(Cl)c(n1)N2)[C@@H]1CCN(C(=O)c2ccccc2)C1 [Example A52, trifluoroacetate] , system human JAK3 (a.a. 781-1124) (Homo sapiens, UniProt P52333): what log10 of IC50 was measured? 0.89

Next molecule up: Cc1cc(C(=O)N2CCC(CC(=O)Nc3ccc4cc3CCc3cccc(c3)Nc3ncc(Cl)c(n3)N4)CC2)no1 [Example A86, trifluoroacetate] 1.46

One more molecule: O=C(CC1CCNC1)Nc1ccc2cc1CCc1cncc(c1)Nc1ncc(Cl)c(n1)N2 (stereo not drawn) [Example A105, tris(trifluoroacetate)] 2.05

Then this molecule: O=C(CC1CCN(C(=O)c2cnccn2)CC1)Nc1ccc2cc1CCc1cccc(c1)Nc1ncc(Cl)c(n1)N2 [Example A87, bis(trifluoroacetate)] 1.75

Next molecule: O=C(Nc1ccc2cc1CCc1cccc(c1)Nc1ncc(Cl)c(n1)N2)[C@@H]1CCNC1 [Example A45, bis(trifluoroacetate)] 1.49

Can you handle COc1cccc(NC(=O)N2CCC(C(=O)Nc3ccc4cc3CCc3cccc(c3)Nc3ncc(Cl)c(n3)N4)CC2)c1 [Example A38, trifluoroacetate] next? 1.66

Now this one: Cc1ncoc1C(=O)N1CCC(CC(=O)Nc2ccc3cc2CCc2cncc(c2)Nc2ncc(Cl)c(n2)N3)CC1 [Example A132, bis(trifluoroacetate)] 2.39

Can you handle CNC(=O)N1CCC(CC(=O)Nc2ccc3cc2CCc2cncc(c2)Nc2ncc(Cl)c(n2)N3)CC1 [Example A100, bis(trifluoroacetate)] next? 1.76

* * *

Field: pIC50. Provide a value for each of the compounds that follow.
system-tested: human JAK3 (a.a. 781-1124) (Homo sapiens, UniProt P52333)
Construct: JAK3 (a.a. 781-1124); His tag (N); made in house; host or cells: insect cells (baculovirus)
test-name: In vitro JAK kinase assay (HTRF, phosphorylation of a biotinylated peptide), JAK3
Format: biochemical
cond: Table D1
Structures can show the parent of a compound that is named as a salt.
# log scale: pIC50 equals minus log10 of the concentration in mol/L

Field request: pIC50 | item: O=C(NCc1ccccc1)N1CCN(c2cc(-c3cc4cc(c3)Nc3ncc(Cl)c(n3)Nc3cccc(c3)OCC4)ccn2)CC1 [Example D45, bis(trifluoroacetate)] 7.44

Next: [O-][S+]1CCc2cccc(c2)Nc2ncc(Cl)c(n2)Nc2cccc1c2 (stereo not drawn) [Example D23, trifluoroacetate] 7.68

Would you kindly repeat that for NC(=O)N1CCN(c2ccc(-c3cc4cc(c3)Nc3ncc(Cl)c(n3)Nc3cccc(c3)OCC4)cn2)CC1 [Example D40, bis(trifluoroacetate)] ? 8.14

* * *

system-tested: Recombinant Human Anaplastic Lymphoma Kinase (Homo sapiens)
Construct: purchased Invitrogen, Carlsbad, Calif
Sequence (Q9UM73 19-1620): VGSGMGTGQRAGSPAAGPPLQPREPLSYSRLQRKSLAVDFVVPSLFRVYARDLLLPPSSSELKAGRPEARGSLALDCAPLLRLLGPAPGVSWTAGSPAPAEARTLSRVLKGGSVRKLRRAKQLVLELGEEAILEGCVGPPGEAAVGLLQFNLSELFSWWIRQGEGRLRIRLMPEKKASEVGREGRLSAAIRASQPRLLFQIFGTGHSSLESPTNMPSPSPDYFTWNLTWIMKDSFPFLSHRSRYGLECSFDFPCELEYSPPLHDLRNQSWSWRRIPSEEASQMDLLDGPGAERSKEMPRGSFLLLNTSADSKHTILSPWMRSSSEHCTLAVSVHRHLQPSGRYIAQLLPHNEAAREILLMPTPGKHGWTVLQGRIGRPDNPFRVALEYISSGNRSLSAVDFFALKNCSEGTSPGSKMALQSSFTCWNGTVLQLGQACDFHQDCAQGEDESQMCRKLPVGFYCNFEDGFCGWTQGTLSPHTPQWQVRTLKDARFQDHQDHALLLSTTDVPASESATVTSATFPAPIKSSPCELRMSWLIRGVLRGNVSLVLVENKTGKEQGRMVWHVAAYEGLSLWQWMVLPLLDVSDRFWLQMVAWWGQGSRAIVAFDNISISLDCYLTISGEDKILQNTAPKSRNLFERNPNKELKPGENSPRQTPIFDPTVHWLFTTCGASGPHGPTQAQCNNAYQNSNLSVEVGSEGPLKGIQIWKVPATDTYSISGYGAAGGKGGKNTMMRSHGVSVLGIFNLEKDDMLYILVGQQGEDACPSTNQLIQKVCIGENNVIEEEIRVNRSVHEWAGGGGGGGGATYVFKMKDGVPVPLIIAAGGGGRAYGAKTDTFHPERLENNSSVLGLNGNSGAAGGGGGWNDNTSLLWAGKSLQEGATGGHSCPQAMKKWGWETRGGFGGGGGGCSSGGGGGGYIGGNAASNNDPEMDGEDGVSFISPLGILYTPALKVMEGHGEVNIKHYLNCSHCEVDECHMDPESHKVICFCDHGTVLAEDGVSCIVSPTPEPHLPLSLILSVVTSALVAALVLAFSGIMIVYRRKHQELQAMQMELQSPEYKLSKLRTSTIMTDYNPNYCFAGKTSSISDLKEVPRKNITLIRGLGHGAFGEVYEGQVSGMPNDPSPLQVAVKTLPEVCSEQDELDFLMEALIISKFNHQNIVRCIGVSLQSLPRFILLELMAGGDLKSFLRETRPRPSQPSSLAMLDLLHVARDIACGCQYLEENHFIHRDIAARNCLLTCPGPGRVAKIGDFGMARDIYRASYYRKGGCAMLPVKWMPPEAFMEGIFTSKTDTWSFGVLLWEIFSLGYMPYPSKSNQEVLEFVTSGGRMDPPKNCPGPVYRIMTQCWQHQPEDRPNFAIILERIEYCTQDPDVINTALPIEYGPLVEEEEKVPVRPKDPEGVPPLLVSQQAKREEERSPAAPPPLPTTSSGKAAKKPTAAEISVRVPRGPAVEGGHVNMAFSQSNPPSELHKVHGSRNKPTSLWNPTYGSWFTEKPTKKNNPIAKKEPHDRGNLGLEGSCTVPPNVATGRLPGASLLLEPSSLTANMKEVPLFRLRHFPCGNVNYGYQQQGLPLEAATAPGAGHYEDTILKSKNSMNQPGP
test-name: ALK HTRF kinase assay
Type: biochemical
cond: percentage inhibition of the example compound at a concentration of 500 nM or 1 mM (not specified which)
Structures can show the parent of a compound that is named as a salt.
measurement-kind: ALK % of inhibition at a concentration of 500 nM or 1 mM (%)
Your answer is read as %, so omit the unit and give the number.

Bench note: what ALK % of inhibition at a concentration of 500 nM or 1 mM did Cc1oncc1S(=O)(=O)N1CCC(CN(C)Cc2ccc3cc2CCc2cncc(c2)Nc2ncc(Cl)c(n2)N3)CC1 [Example B342, tris(trifluoroacetate)] show? 37

Ok, now CN(Cc1ccc2cc1CCc1cncc(c1)Nc1ncc(Cl)c(n1)N2)C(=O)C1CCN(c2ncccn2)CC1 [Example B338, tris(trifluoroacetate)] 21

Next compound: Clc1cnc2nc1Nc1ccc(-c3cn[nH]c3)c(c1)CCc1cncc(c1)N2 [Example B350, tris(trifluoroacetate)] 58

Same lookup for CCS(=O)(=O)NCCNC(=O)Nc1ccc2cc1CCc1cccc(c1)Nc1ncc(Cl)c(n1)N2 [Example B325, trifluoroacetate] , please. 19

Entry O=C(Nc1ccc2cc1CCc1cncc(c1)Nc1ncc(Cl)c(n1)N2)N1CCN(c2cccc(Cl)c2)CC1 [Example B306, tris(trifluoroacetate)] please 72

// next record CN(Cc1ccc2cc1CCc1cncc(c1)Nc1ncc(Cl)c(n1)N2)CC1CCN(S(=O)(=O)c2ccccc2C#N)CC1 [Example B340, tris(trifluoroacetate)] 24

* * *

Please go through the items and note down their pIC50.
system-tested: human JAK2 (a.a. 828-1132) (Homo sapiens, UniProt O60674)
Construct: JAK2 (a.a. 828-1132); His tag (N); made in house; host or cells: insect cells (baculovirus)
Sequence (O60674 828-1132): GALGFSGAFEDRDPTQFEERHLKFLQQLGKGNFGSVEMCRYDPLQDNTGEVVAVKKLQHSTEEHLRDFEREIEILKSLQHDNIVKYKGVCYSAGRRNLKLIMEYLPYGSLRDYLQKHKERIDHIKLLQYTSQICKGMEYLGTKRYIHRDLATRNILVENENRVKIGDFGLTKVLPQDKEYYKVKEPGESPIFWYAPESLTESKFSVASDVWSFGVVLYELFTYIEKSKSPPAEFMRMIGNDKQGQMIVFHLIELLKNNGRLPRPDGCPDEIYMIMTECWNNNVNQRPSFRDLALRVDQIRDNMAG
test-name: In vitro JAK kinase assay (HTRF, phosphorylation of a biotinylated peptide), JAK2
Assay type: biochemical
cond: Table D1
Counter-ions that a name gives are not always drawn.
# pIC50: negative log10 of molar concentration; output just the value

Which measured pIC50 value corresponds to O=C(CC1CN(C(=O)c2nccs2)C1)Nc1ccc2cc1CCc1cncc(c1)Nc1ncc(Cl)c(n1)N2 [Example D145, bis(trifluoroacetate)] ? 6.91

Also check CCS(=O)(=O)N1CCN(C(=O)COc2ccc3cc2CCc2cncc(c2)Nc2ncc(Cl)c(n2)N3)CC1 [Example D263, bis(trifluoroacetate)] 6.74

And "O=C(C[C@H]1CCCNC1)Nc1ccc2cc1CCc1cncc(c1)Nc1ncc(Cl)c(n1)N2" ? 7.27

Same question, O=C(Nc1cc2cc(c1)OCCSc1cccc(c1)Nc1nc(ncc1Cl)N2)c1ccccc1 [Example D57, trifluoroacetate] this time 8.64

Then this compound: CNC(=O)N1CCN(C(=O)COc2ccc3cc2CCc2cncc(c2)Nc2ncc(Cl)c(n2)N3)CC1 [Example D265, bis(trifluoroacetate)] 6.63

Repeat for the following compound: O=C(CC1CN(C(=O)c2nc[nH]n2)C1)Nc1ccc2cc1CCc1cncc(c1)Nc1ncc(Cl)c(n1)N2 [Example D147, bis(trifluoroacetate)] 7.07

* * *

system-tested: human JAK2 (a.a. 828-1132) (Homo sapiens, UniProt O60674)
Construct: JAK2 (a.a. 828-1132); His tag (N); made in house; host or cells: insect cells (baculovirus)
test-name: In vitro JAK kinase assay (HTRF, phosphorylation of a biotinylated peptide), JAK2
Type: biochemical
cond: method AA1 (30 μM ATP) or AA2 (1000 μM ATP), not stated per value
Structures can show the parent of a compound that is named as a salt.
Could you please report measured pIC50 for the items listed next?
In plain terms, pIC50 is the concentration in mol/L turned into minus its base-10 logarithm.

pIC50 of Cc1cc(C(=O)N2CCCC(C(=O)Nc3ccc4cc3CCc3cccc(c3)Nc3ncc(Cl)c(n3)N4)C2)no1 (stereo not drawn) [Example A121, trifluoroacetate] on human JAK2 (a.a. 828-1132) (Homo sapiens, UniProt O60674)? 8.38

Try this molecule too: CC(=O)N1CCC(C(=O)Nc2ccc3cc2CCc2cccc(c2)Nc2ncc(Cl)c(n2)N3)CC1 [Example A29, trifluoroacetate] 7.51

Here is the next molecule: O=C(CCC1CCNCC1)Nc1ccc2cc1CCc1cccc(c1)Nc1ncc(Cl)c(n1)N2 [Example A116, bis(trifluoroacetate)] 7.70

Please answer likewise for O=C(CC1CCN(C(=O)Nc2ccc(F)cc2)CC1)Nc1ccc2cc1CCc1cncc(c1)Nc1ncc(Cl)c(n1)N2 [Example A148, bis(trifluoroacetate)] 8.82

Another molecule to look at: "NC(=O)COc1cc2cc(c1)Nc1nc(ncc1Cl)Nc1cccc(c1)CC2" 9.00

For CC(C)C(=O)N1CCC(CC(=O)Nc2ccc3cc2CCc2cccc(c2)Nc2ncc(Cl)c(n2)N3)CC1 [Example A89, trifluoroacetate] then? 8.43

Next record, please: N#Cc1cccc(S(=O)(=O)N2CCC(CC(=O)Nc3ccc4cc3CCc3cncc(c3)Nc3ncc(Cl)c(n3)N4)CC2)c1 [Example A228, bis(trifluoroacetate)] 6.94

Next record, please: "Cc1cc(C(=O)N2CC[C@@H](C(=O)Nc3ccc4cc3CCc3cccc(c3)Nc3ncc(Cl)c(n3)N4)C2)no1" 8.41

CCNC(=O)N1CC[C@@H](C(=O)Nc2ccc3cc2CCc2cccc(c2)Nc2ncc(Cl)c(n2)N3)C1 [Example A53, trifluoroacetate] ? 8.92

Repeat with CC(C)(C)OC(=O)N1CCN(C(=O)COc2ccc3cc2CCc2cccc(c2)Nc2ncc(Cl)c(n2)N3)CC1 [Example A17, trifluoroacetate] 7.06

Ok, now CN(C)C(=O)N1CCC(CC(=O)Nc2ccc3cc2CCc2cncc(c2)Nc2ncc(Cl)c(n2)N3)CC1 [Example A95, bis(trifluoroacetate)] 7.64

Now the molecule N#Cc1cccc(NC(=O)N2CCC(CC(=O)Nc3ccc4cc3CCc3cncc(c3)Nc3ncc(Cl)c(n3)N4)CC2)c1 [Example A142, bis(trifluoroacetate)] 8.32

Also need O=C(CC1CCN(c2ccncc2F)CC1)Nc1ccc2cc1CCc1cncc(c1)Nc1ncc(Cl)c(n1)N2 [Example A243, tris(trifluoroacetate)] , thanks. 6.92

What would you report for CS(=O)(=O)N1CCC(CC(=O)Nc2ccc3cc2CCc2cncc(c2)Nc2ncc(Cl)c(n2)N3)C1 (stereo not drawn) [Example A91, bis(trifluoroacetate)] ? 8.23

Then N#CCC(=O)Nc1ccc2cc1CCc1cccc(c1)Nc1ncc(Cl)c(n1)N2 [Example A65, trifluoroacetate] ? 7.96

Another: Nc1nc(C(=O)N2CCC(CC(=O)Nc3ccc4cc3CCc3cncc(c3)Nc3ncc(Cl)c(n3)N4)CC2)cs1 [Example A217, tris(trifluoroacetate)] 7.17

// same read-out, input: O=C(CC1CCN(C(=O)NC2CCCC2)CC1)Nc1ccc2cc1CCc1cccc(c1)Nc1ncc(Cl)c(n1)N2 [Example A64, trifluoroacetate] 8.19
